- Tested on: HUVEC
- test.name: Antiangiogenic activity in HUVEC assessed as inhibition of cell proliferation after 72 hrs by MTT assay
- Assay type: functional, cell-based
- settings: Homo sapiens
endpoint: IC50 (µM)
Numbers only, in µM.

Below: 5 compounds and their reported IC50.
                               given_smiles  endpoint  value_reported
0  O=C1C[C@H]2C(=C3c4c2ccc(O)c4[C@@H](O)C[C@@H]3O)c2cccc(O)c21      IC50              21
1  CO[C@H]1C[C@H](O)C2=C3c4cccc(O)c4C(=O)C[C@@H]3c3ccc(O)c1c32      IC50              24
2  CCO[C@@H]1C[C@H](O)C2=C3c4cccc(O)c4C(=O)C[C@@H]3c3ccc(O)c1c32      IC50             6.9
3  CCO[C@H]1C[C@H](O)C2=C3c4cccc(O)c4C(=O)C[C@@H]3c3ccc(O)c1c32      IC50              15
4  O=C1C[C@H]2C(=C3c4c2ccc(O)c4[C@H](O)C[C@@H]3O)c2cccc(O)c21      IC50              17

Moving on to the next compound.
IN: Item under review: CO[C@@H]1C[C@H](O)C2=C3c4cccc(O)c4C(=O)C[C@@H]3c3ccc(O)c1c32 . Reported IC50?
OUT: 7.4
